Compiled notes: published IC50 values involving TEC (Homo sapiens, UniProt P42680).
Give the value in µM but do not write µM after it.

Field: example entries. Status: answers known.
C=CC(=O)N1CC[C@]2(C1)C[C@H](n1c(NC(=O)c3cc(C)no3)nc3cc(CN4CCCC4)ccc31)C2 = 0.0955
CC(=O)N[C@@H]1CCN(c2n[nH]c3nccc(-c4ccc(CNC(=O)c5coc(C(C)C)n5)c(F)c4)c23)C1 = 3.21
C=CC(=O)N[C@H]1CC[C@@H](n2nc(-c3ccc(Oc4ccccc4)cc3)c3c(N)ncnc32)CC1 = 0.108

Please examine the following record next.
q: Query for TEC (Homo sapiens, UniProt P42680): what IC50 does the record show for C[C@@H]1[C@H](Nc2n[nH]c3nccc(-c4ccc(CNC(=O)c5noc(C(C)(C)C)n5)c(F)c4)c23)CCCN1C(=O)C1CC1 ?
a: 4.43

###

The following molecules were reported with IC50 values on TEC (Homo sapiens, UniProt P42680) in different studies.
Sequence (P42680 whole entry): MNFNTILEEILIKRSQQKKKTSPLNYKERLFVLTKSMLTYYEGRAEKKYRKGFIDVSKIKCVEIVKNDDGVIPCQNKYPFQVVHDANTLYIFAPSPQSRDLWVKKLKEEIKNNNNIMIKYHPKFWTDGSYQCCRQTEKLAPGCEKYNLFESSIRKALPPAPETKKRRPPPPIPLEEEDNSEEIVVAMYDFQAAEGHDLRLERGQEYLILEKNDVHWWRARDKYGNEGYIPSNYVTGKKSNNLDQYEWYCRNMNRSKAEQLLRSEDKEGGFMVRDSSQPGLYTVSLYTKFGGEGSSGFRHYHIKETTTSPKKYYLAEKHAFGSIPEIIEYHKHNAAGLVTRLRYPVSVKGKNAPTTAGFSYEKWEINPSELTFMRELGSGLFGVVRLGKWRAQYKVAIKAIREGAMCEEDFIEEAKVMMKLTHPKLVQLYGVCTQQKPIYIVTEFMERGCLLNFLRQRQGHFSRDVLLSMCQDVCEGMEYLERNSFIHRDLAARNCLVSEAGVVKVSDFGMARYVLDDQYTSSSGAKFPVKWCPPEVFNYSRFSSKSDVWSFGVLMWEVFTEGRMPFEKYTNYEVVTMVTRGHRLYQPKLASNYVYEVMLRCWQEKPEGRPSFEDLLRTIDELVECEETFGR

Here are 5 molecules together with their reported answers.
CC(C)(C)c1cc(C(=O)NCc2ccc(-c3ccnc4[nH]nc(N[C@H]5CC[C@H](O)CC5)c34)cc2F)no1 = 6.26 µM
C=CC(=O)N[C@@H]1CCN(c2n[nH]c3nccc(-c4ccc(CNC(=O)c5noc(C(C)C)n5)c(F)c4)c23)C1 = 0.0474 µM
CC(C)(C)c1ccc2c(c1)CCN(Cc1ccc(-c3ccnc4[nH]nc(N[C@H]5CC[C@H](O)CC5)c34)cc1F)C2=O = > 10 µM
O=C(CNc1cc(Cl)cc(Cl)c1)N1CC[C@@H]2CCN(c3ncnc4[nH]ccc34)[C@@H]2C1 = < 0.1 µM
CC(C)(C)c1noc(C(=O)NCc2ccc(-c3ccnc4[nH]nc(N[C@H]5CCNC5)c34)cc2F)n1 = 6.26 µM

q: Requested field: IC50. Item: CC(C)c1cc(C(=O)NCc2ccc(-c3ccnc4[nH]nc(N[C@@H]5CCCN[C@@H]5C)c34)cc2F)no1
a: > 10 µM

q: Name the recorded IC50 for CCCS(=O)(=O)Nc1ccc(F)c(C(=O)c2c[nH]c3ncc(-c4ccc(N)nc4)cc23)c1F .
a: ≤ 10 µM

q: # IC50 lookup, item CCCS(=O)(=O)Nc1cccc(S(=O)(=O)c2c[nH]c3ncc(Cl)cc23)c1
a: ≤ 10 µM

q: Could you share which IC50 value was measured for CCc1cc(C(=O)NCc2ccc(-c3ccnc4[nH]nc(N[C@@H]5CCCN[C@@H]5C)c34)cc2F)no1 ?
a: > 10 µM

q: Query: IC50; subject: O=C(CNc1ccccc1S(=O)(=O)c1ccccc1)N1CCC2CCN(c3ncnc4[nH]ccc34)C2C1 (stereo not drawn)
a: 0.1 to 0.999 µM

q: Please give the measured IC50 for this molecule: C=CC(=O)N[C@@H]1CCN(c2n[nH]c3nccc(-c4ccc([C@@H](C)NC(=O)c5cc(C(C)(C)O)on5)c(F)c4)c23)C1
a: 0.0678 µM

q: Given the entry C[C@@H]1[C@H](Nc2n[nH]c3nccc(-c4ccc(CNC(=O)c5noc(C(C)(C)C)n5)c(F)c4)c23)CCCN1C(=O)N1CCCC1 , report its measured IC50.
a: 7.93 µM

q: Consider the molecule CCC(C)S(=O)(=O)Nc1ccc(F)c(C(=O)c2c[nH]c3ncc(-c4cnc(OC)nc4)cc23)c1F (stereo not drawn) and give its measured IC50.
a: ≤ 10 µM

q: # input molecule: O=C(CNc1cc(Cl)cc(Cl)c1)N1CCC2CCN(c3ncnc4[nH]ncc34)C2C1 (stereo not drawn) ; wanted: its IC50
a: 0.1 to 0.999 µM

q: Which value of IC50 has been reported for COc1ccnc2[nH]cc(C(=O)c3c(F)ccc(NS(=O)(=O)c4ccc(F)cc4)c3F)c12 in the records?
a: ≤ 10 µM

###

Here's a roundup of IC50 values tested on TEC (Homo sapiens), taken from various published works.
Number only, in nM; omit the unit.

C=CC(=O)N1CCC(Nc2n[nH]c3nccc(-c4ccc(CNC(=O)c5noc(C(C)(C)C)n5)c(F)c4)c23)CC1 = 470
C=CC(=O)N1CCC[C@@H](n2nc(-c3ccc(C(=O)Nc4ccccn4)cc3)c3c(N)nccc32)C1 = 6.61
CC(C)(C)c1nc(C(=O)NCc2ccc(-c3ccnc4[nH]nc(N[C@@H]5CCNC5)c34)cc2F)co1 = 7180

q: What value of IC50 has been recorded for this entry: C=CC(=O)N1CC[C@@H](Nc2n[nH]c3nccc(-c4ccnc(N5CCn6c(cc7c6CC(C)(C)C7)C5=O)c4C=O)c23)C1
a: 1830

q: So what's the measured IC50 for this one? C=CC(=O)N1CCC[C@@H](n2nc(-c3ccc(C(=O)Nc4cc(C(F)(F)F)ccn4)cc3)c3c(N)ncc(Cl)c32)C1
a: 7.21

q: What value of measured IC50 is listed for C=CC(=O)N1CC[C@]2(C1)C[C@H](n1c(NC(=O)c3cc(C(C)(C)C)no3)nc3cc(CN4CCCC4)ccc31)C2 ?
a: 529

q: Would you kindly share the measured IC50 for C=CC(=O)N1CCC[C@@H](n2nc(-c3ccc(Oc4ccncc4)cc3)c3c(N)ncc(OC)c32)C1 ?
a: 6

q: Name the recorded IC50 for CC(C)N1CC[C@H](Nc2n[nH]c3nccc(-c4ccc(CNC(=O)c5nc(C(C)(C)C)no5)c(F)c4)c23)C1 .
a: 9450

q: Which IC50 value is on record for C=CC(=O)N1CCC[C@H](Nc2n[nH]c3nccc(-c4ccc(CNC(=O)c5nc(C(C)(C)C)no5)c(F)c4)c23)C1 ?
a: 1750

q: Entry under review: CC(C)(C)c1cccc(C(=O)NCc2ccc(-c3ccnc4[nH]nc(N[C@@H]5CCNC5)c34)cc2F)c1 . Reported IC50?
a: 3340

q: I would be grateful if you could share the reported IC50 for C=CC(=O)N1CC[C@@H](Nc2n[nH]c3nccc(-c4cc(F)cc(CNC(=O)c5ccc(C(C)(C)C)cc5)c4)c23)C1 .
a: 3280

###

// cross-source set; read-out = IC50; system = TEC (Homo sapiens)

Solved cases (6 shown):
CN(C)C(=O)N1CC[C@@H](Oc2n[nH]c3nccc(-c4ccc(CNC(=O)c5noc(C(C)(C)C)n5)c(F)c4)c23)C1 = 5.24 µM
CC(=O)N1CC[C@H](Nc2n[nH]c3nccc(-c4ccc(CNC(=O)c5noc(C(C)(C)C)n5)c(F)c4)c23)C1 = 6.92 µM
COc1ncc(-c2cnc3[nH]cc(C(=O)c4c(F)ccc(NS(=O)(=O)c5ncn[nH]5)c4F)c3c2)cn1 = ≤ 10 µM
COc1ccnc2[nH]cc(C(=O)c3c(F)ccc(NS(=O)(=O)c4c(F)cccc4F)c3F)c12 = ≤ 10 µM
C=CC(=O)N[C@@H]1CCN(c2n[nH]c3nccc(-c4ccc(CNC(=O)c5nc(C(C)(C)C)no5)c(F)c4)c23)C1 = 0.03 µM
N#Cc1cnc2[nH]cc(C(=O)c3c(F)ccc(NS(=O)(=O)C4CCC4)c3F)c2c1 = ≤ 10 µM

Let us examine a further case.
q: Form field: IC50 recorded for O=C(Nc1ccc(F)c(C(=O)c2c[nH]c3ncc(-c4cccnc4)cc23)c1F)NC1CCCC1 with TEC (Homo sapiens) (enter value)
a: ≤ 10 µM

###

Here is a set of molecules with reported IC50 for UniProt P42680, compiled from the literature.

CC(C)(C)c1ncc(C(=O)NCc2ccc(-c3ccnc4[nH]nc(N[C@H]5CC[C@H](O)CC5)c34)cc2F)o1 = 4.68 µM
CC(C)(C)c1nc(C(=O)NCc2ccc(-c3ccnc4[nH]nc(N5CC[C@@H](N)C5)c34)cc2F)no1 = 1.65 µM
O=C(c1cccc(NS(=O)(=O)N2CCCCC2)c1)c1c[nH]c2ncc(Cl)cc12 = ≤ 10 µM
CC(=O)N[C@@H]1CCN(c2n[nH]c3nccc(-c4ccc(CNC(=O)c5ccc(C(C)(C)O)cc5F)c(F)c4)c23)C1 = 3.9 µM

q: State its IC50 on UniProt P42680: CCCS(=O)(=O)Nc1ccc(F)c(C(=O)c2c[nH]c3ncc(CN4CCN(C)CC4)cc23)c1F
a: ≤ 10 µM

q: Entry COc1ccnc2[nH]cc(C(=O)c3c(F)ccc(NS(=O)(=O)c4ccc(C(F)(F)F)cc4)c3F)c12 , system UniProt P42680: what IC50 was measured?
a: ≤ 10 µM

q: What IC50 appears in the records for this molecule with UniProt P42680? C[C@@H]1[C@H](Nc2n[nH]c3nccc(-c4ccc(CNC(=O)c5noc(C(C)(C)C)n5)c(F)c4)c23)CCCN1C(=O)NCC(F)(F)F
a: > 10 µM

q: UniProt P42680 / IC50 / CCCS(=O)(=O)Nc1ccc(F)c(C(=O)c2c[nH]c3ncc(CCCN4CCCC4)cc23)c1F : value?
a: ≤ 10 µM

q: Which IC50 is reported with UniProt P42680 for this entry: CCCS(=O)(=O)Nc1ccc(F)c(C(=O)c2c[nH]c3ncc(-c4cccnc4)cc23)c1F ?
a: ≤ 10 µM
